# Test Protocol: solubility
# Assay type: physicochemical
# Condition Info: read-out: max. solubility
Metric: solubility
Quote the value and follow it with the unit of measurement.

Given OC[C@H]1O[C@@H](Oc2ccc(O)cc2)[C@H](O)[C@@H](O)[C@@H]1O [Pure Arbutin, arbutin] , state its recorded solubility. 50 mg/mL

Where do these numbers come from? They come from patent US5773014A.
